molecular target: human Acetylcholinesterase (AChE), ACHE (gene 43) (UniProt P22303); assay: NVS_ENZ_hAChE: NovaScreen (NVS) Enzymatic Assay for human Acetylcholinesterase (AChE) (AID 2283129)
Sequence (P22303 whole entry, looked up): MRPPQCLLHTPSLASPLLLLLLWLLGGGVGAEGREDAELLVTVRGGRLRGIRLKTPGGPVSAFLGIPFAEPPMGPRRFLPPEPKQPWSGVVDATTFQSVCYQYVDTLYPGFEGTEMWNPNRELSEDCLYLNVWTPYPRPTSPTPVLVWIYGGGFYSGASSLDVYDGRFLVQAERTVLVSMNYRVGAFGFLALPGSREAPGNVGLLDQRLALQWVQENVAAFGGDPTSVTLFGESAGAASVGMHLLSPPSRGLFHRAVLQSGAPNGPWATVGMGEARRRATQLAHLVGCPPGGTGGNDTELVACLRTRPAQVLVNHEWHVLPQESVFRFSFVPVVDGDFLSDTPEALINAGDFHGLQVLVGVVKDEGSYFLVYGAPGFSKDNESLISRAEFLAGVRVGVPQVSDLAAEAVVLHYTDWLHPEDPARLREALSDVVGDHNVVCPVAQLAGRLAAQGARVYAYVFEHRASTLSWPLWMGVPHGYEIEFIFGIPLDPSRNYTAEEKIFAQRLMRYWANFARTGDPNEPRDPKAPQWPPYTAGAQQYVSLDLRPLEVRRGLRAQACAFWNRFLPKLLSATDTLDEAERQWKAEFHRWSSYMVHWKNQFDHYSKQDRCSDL
Records with an inconclusive call do not appear. The source made the active and inactive calls. How the source made its calls: active means hit-call score of the fitted dose curve at least 0.9, where 1 is the maximum; inconclusive means response in the unintended direction; inactive means score below 0.9.
Please state which outcome applies, choosing from y for active, n for inactive

For `[2H]C1([2H])[n+]2ccccc2-c2cccc[n+]2C1([2H])[2H]` , which call appears in the assay record?
n

For `N#Cc1c(Cl)c(Cl)c(Cl)c(C#N)c1Cl` , which call appears in the assay record?
n

For `COP(=S)(OC)Oc1ccc([N+](=O)[O-])cc1` , which call appears in the assay record?
n

For `CNC(=O)Oc1ccccc1OC(C)C` , which call appears in the assay record?
y

For `CC(C)N(C(=O)COc1nnc(C(F)(F)F)s1)c1ccc(F)cc1` , which call appears in the assay record?
y

Value source: PubChem BioAssay (EPA / NIEHS)
